These measurements were taken from patent US20070134744A1.

# reported IC50; entries follow
test system: EA40 cells; assay: MTS growth inhibition assay; assay type: cell-based; conditions: EA40 cells, P-gp substrates; Table 2
Counter-ions that a name gives are not always drawn.
parameter: IC50 (nM)

{"molecule": "CC[C@]1(O)C[C@H]2CN(CCc3c([nH]c4ccccc34)[C@@](C(=O)OC)(c3cc4c(cc3OC)N(C=O)[C@H]3[C@@](O)(C(=O)OC)[C@H](OC(C)=O)[C@]5(CC)C=CCN6CC[C@]43[C@@H]65)C2)C1 [Vincristine, vincristine]", "parameter": "IC50", "reportedRelation": "=", "experimentalValue": 4}
{"molecule": "CC[C@]1(O)C[C@@H]2CN(CCc3c([nH]c4ccccc34)[C@@](C(=O)OC)(c3cc4c(cc3OC)N(C)[C@H]3[C@@](O)(C(=O)OC)[C@H](OC(C)=O)[C@]5(CC)C=CCN6CC[C@]43[C@@H]65)C2)C1 [Vinblastine, Vinblastine sulfate]", "parameter": "IC50", "reportedRelation": "<", "experimentalValue": 1}
{"molecule": "COc1cccc2c1C(=O)c1c(O)c3c(c(O)c1C2=O)C[C@@](O)(C(=O)CO)C[C@@H]3O[C@H]1C[C@H](N)[C@H](O)[C@H](C)O1 [Doxorubicin, doxorubicin]", "parameter": "IC50", "reportedRelation": "=", "experimentalValue": 365}
{"molecule": "COc1cccc2c1C(=O)c1c(O)c3c(c(O)c1C2=O)C[C@@](O)(C(C)=O)C[C@@H]3O[C@H]1C[C@H](N)[C@H](O)[C@H](C)O1 [Daunorubicin]", "parameter": "IC50", "reportedRelation": "=", "experimentalValue": 224}
{"molecule": "CC(=O)O[C@H]1C(=O)[C@@]2(C)[C@H]([C@H](OC(=O)c3ccccc3)[C@]3(O)C[C@H](OC(=O)[C@H](O)[C@@H](NC(=O)c4ccccc4)c4ccccc4)C(C)=C1C3(C)C)[C@]1(OC(C)=O)CO[C@@H]1C[C@@H]2O [Paclitaxel, paclitaxel]", "parameter": "IC50", "reportedRelation": "=", "experimentalValue": 21}

====

Tested on: 297/C5/0 cells
Format: cell-based, human
Settings: 297/C5/0 vs parental KB-31
Protocol: Anti-proliferative assays are performed basically as described (Meyer et al., Int. J. Cancer 43:851 (1989)). Briefly, cells are seeded at 1.5×10^3 cells/well into 96-well microtiter plates and allowed to adhere by incubation overnight. Compounds are added in serial dilutions on day 1. […] After washing, the dye is eluted with 3% HCl and the optical density measured at 665 nm with a SpectraMax Plus (Molecular Devices, Sunnyvale, Calif.) according to manufacturers instructions. […]
Counter-ions that a name gives are not always drawn.

{"molecule": "CN[C@H]1CCc2cc(OC)c(OC)c(OC)c2-c2ccc(OC)c(=O)cc21", "resistance profile in words": "hypersensitive"}
{"molecule": "CC[C@]1(O)C[C@@H]2CN(CCc3c([nH]c4ccccc34)[C@@](C(=O)OC)(c3cc4c(cc3OC)N(C)[C@H]3[C@@](O)(C(=O)OC)[C@H](OC(C)=O)[C@]5(CC)C=CCN6CC[C@]43[C@@H]65)C2)C1 [Vinblastine, Vinblastine sulfate]", "resistance profile in words": "hypersensitive"}

====

system: 297/C5/0 cells; assay type: cell-based, human; conditions: 297/C5/0 (EpoA selected), 72 hrs, average of three experiments
Where a name gives a salt, the structure may show the parent alone.
Quick list: RF (resistance factor: IC50 resistant cell line / IC50 parental KB-31) per entry.
parameter: RF (resistance factor: IC50 resistant cell line / IC50 parental KB-31)

{"molecule": "CC[C@]1(O)C[C@@H]2CN(CCc3c([nH]c4ccccc34)[C@@](C(=O)OC)(c3cc4c(cc3OC)N(C)[C@H]3[C@@](O)(C(=O)OC)[C@H](OC(C)=O)[C@]5(CC)C=CCN6CC[C@]43[C@@H]65)C2)C1 [Vinblastine, Vinblastine sulfate]", "assayedSystem": "297/C5/0 cells", "experimentalValue": 0.7}
{"molecule": "[NH2][Pt]1([NH2])[O]C(=O)C2(CCC2)C(=O)[O]1", "assayedSystem": "297/C5/0 cells", "experimentalValue": 1.2}
{"molecule": "C=C/C=C\\[C@H](C)[C@H](OC(N)=O)[C@@H](C)[C@H](O)[C@@H](C)C/C(C)=C\\[C@H](C)[C@@H](O)[C@@H](C)/C=C\\[C@@H](O)C[C@@H]1OC(=O)[C@H](C)[C@@H](O)[C@H]1C [Discodermolide]", "assayedSystem": "297/C5/0 cells", "experimentalValue": 1.3}
